- experiment: yeast display, Sf9 membrane polyspecificity reagent, FACS + sequencing; frameworks hold sequencing errors
assayReadout: polyreactivity (PSR sort gate)

Example entries begin here.
sequenceCode: QVQLVESGGGLVQAGGSLRLSCAASGFTFKVYNAMGWYRQAPGKERELVAAISSSVGGTYYADSVKGRFTISRDYAKNTVYLQMNSLKPEDTAVYYCATDDFTYVVAKDGDYWGQGTQVTVSS
assayReadout: polyreactivity (PSR sort gate)
result: low polyreactivity

sequenceCode: QVQLEESGGGLVQAGGSLRLSCAASGLTFYSYAMGWYRQAPGKERELVAGINYSGDSTHYADSVKGRFTISRDNAKNTVYLQMNSLKPEDTAVYYCASQTFVYRKELLSRYEYWGQGTQVTVSS
assayReadout: polyreactivity (PSR sort gate)
result: high polyreactivity

sequenceCode: QVQLVESGGGLVQAGGSLRLSCAASGSTFALYAMGWYRQAPGKERELVAVITSGGSTYYADSVKGRFTISRDNAKNTVYLQMNSLKPEDTAVYYCAARRHVRKGPLGYWGQGTQVTVSS
assayReadout: polyreactivity (PSR sort gate)
result: high polyreactivity

sequenceCode: QVQLVESGGGLVHAGGSLRLSCAAAGSTFYYYAMGWYRQAPGKERELVARISDGDSTNYADSVKGRFTISRDNAKNTVYLQMNSLKPEDTAVYYCAAQHWYLGYGYWGQGTQVTVSS
assayReadout: polyreactivity (PSR sort gate)
result: low polyreactivity

What the record says about QVQLVESGGGLVQAGGSLRLSCAASGSIIGIYALGWYRQAPGKERELVAAISWSGGSTYYADSVKGRFTISRDNAKNTVYLQMNSLKPEDTAVYYCAARGHYQYYWGQGTQVTVSS : polyreactivity (PSR sort gate) is low polyreactivity
